# Target Entity: Phenylethanolamine N-methyltransferase (Bos taurus)
# Sequence (P10938 whole entry): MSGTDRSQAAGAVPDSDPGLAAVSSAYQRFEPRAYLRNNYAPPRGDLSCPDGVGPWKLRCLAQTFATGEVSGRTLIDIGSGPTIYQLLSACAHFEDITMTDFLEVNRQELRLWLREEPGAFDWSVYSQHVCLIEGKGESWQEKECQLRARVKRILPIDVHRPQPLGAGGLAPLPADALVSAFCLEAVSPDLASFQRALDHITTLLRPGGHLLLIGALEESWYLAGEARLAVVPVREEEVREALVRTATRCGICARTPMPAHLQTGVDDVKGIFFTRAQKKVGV
# Test Description: Compound was tested in vitro inhibition of phenylethanolamine N-methyl-transferase (PNMT) activity using radiochemical assay
Below, each of the molecules is paired with its reported pKi value.
pKi field: float, defined as -log10 of concentration (mol/L).

In the examples that follow, each entry is paired with its recorded pKi.
Molecule | pKi
N[C@@H]1CC2C[C@@H]1c1ccccc12 | 3.32
N[C@@H]1CC2CC1c1cc(O)c(O)cc12 (some centres undefined) | 3.31
N[C@@H]1C2CCC1c1cc(O)ccc12 (some centres undefined) | 3.97
N[C@@H]1CC2CC1c1ccc(O)cc12 (some centres undefined) | 3.52
N[C@@H]1CC2CC1c1c(O)cccc12 (some centres undefined) | 2.52

Reported pKi for N[C@@H]1C2CCC1c1c(O)cccc12 (some centres undefined) : what is it? 2.40

Next up: N[C@@H]1CC2CC1c1cccc(O)c12 (some centres undefined) 2.00

Next up: N[C@@H]1CC2CC1c1cc(O)ccc12 (some centres undefined) 2.95

Next up: N[C@@H]1CC2CCC1c1ccccc12 (some centres undefined) 3.59
